assay: compounds raising alpha-dystroglycan glycosylation – uHTS, Pro5-aDG cells, AlphaScreen, primary screen (AID 624168); settings: alpha-DG glycosylation AlphaScreen (IIH6), at 10 µM, active compounds read high, 0% Pro5, 100% B10-LARGE cell signal;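 further: Pro5 are CHO cells carrying HIG-tagged alpha-DG that lacks glycosylation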
The campaign covered roughly 360,000 compounds. About 800 (0.22%) were called active. The sample holds actives, similar compounds and a random draw of the others, so the mix is not that of the screen.
quantityMeasured: activation (%)
One number for each entry, in %.

Here is how some compounds turned out for activation.
compound | quantityMeasured | recordedMeasurement
CS(=O)(=O)N(CC(=O)N1CCCCCC1)c1cccc(Cl)c1Cl | activation | -0.1
CCc1cccc(C)c1NC(=O)COC(=O)CC1CCCC1 | activation | 0.2
CCCN(CCC)C(=O)C1c2ccccc2Oc2ccccc21 | activation | 0.2
Cc1nc(N)nc(Cl)c1CCC1OCCO1 | activation | 0.5
CC(C)c1cc(Cn2c3ccccc3c(=O)n2C(C)Cn2cc(C3CC3)nn2)on1 (configuration not stated) | activation | 6.8
CC1CCCN(S(=O)(=O)c2ccc(N(C(=O)c3cnccn3)C(C(=O)NC3CCCCC3)c3cccs3)cc2)C1 (configuration not stated) | activation | -0.1

Give one value of activation per listed compound.
1. COc1ccc(NC(=O)CSc2nnc(C3CC3)n2C)cc1S(=O)(=O)N1CCCCC1
2. CN1CCN(S(=O)(=O)c2cccc(C(=O)Nc3sccc3C#N)c2)CC1
3. Cc1ccc(N2C(=O)SC(N(CC(=O)O)c3ccc(C)cc3)C2=O)cc1 (configuration not stated)
4. O=C(Nc1nncs1)c1cccc(S(=O)(=O)N2CCCCC2)c1
5. CC(C)c1cccc(C(C)C)c1Nc1cn[nH]c1
6. CC(NC(=O)c1cccc(S(=O)(=O)N2CCc3ccccc3C2)c1)c1ccco1 (configuration not stated)
7. CN1CCN(S(=O)(=O)c2cccc(C(=O)Nc3cccc(S(N)(=O)=O)c3)c2)CC1

[A]
[-0.1, 8.2, 1.3, -0.2, 0.6, 0.1, -0.1]

Give one value of activation per listed compound.
1. COc1cccc(C(=O)Nc2nnc(S(=O)(=O)N3CCCCC3)s2)c1
2. COc1cccc(C(=O)Nc2nnc(S(=O)(=O)N3CCOCC3)s2)c1
3. CC(C)OC(=O)CN1C(=O)C(=O)c2ccccc21
4. O=C(Nc1nnc(S(=O)(=O)N2CCCCCC2)s1)c1cccc(Br)c1
5. Cc1ccc(S(=O)(=O)N2CCCCC2)cc1NC(=O)[C@@H]1CCCN1C(=O)c1cccs1

[A]
1: 10.9; 2: -0.1; 3: 14.6; 4: -0.2; 5: 0.1

Give one value of activation per listed compound.
1. O=C1C(=O)N(c2ccccc2)c2ccccc21
2. COc1cccc(NC(=O)N(C)C[C@@H]2Oc3ncc(Br)cc3C(=O)N([C@@H](C)CO)C[C@H]2C)c1
3. Cc1ccc(NS(=O)(=O)c2c(C)[nH]c(C)c2C(=O)N2CCCCC2)c(C)c1

[A]
1. 2.6
2. 0.2
3. -0.1

[Q] Item COc1ccc(CC(=O)NC2CCSc3ccccc32)cc1OC (configuration not stated) has what recorded activation?
[A] 0.1

###

So I've got a bunch of compounds here, and I need their activation values.
assay: compounds raising alpha-dystroglycan glycosylation – uHTS, Pro5-aDG cells, AlphaScreen, primary screen (AID 624168); conditions: alpha-DG glycosylation AlphaScreen (IIH6), at 10 µM, active compounds read high, 0% Pro5, 100% B10-LARGE cell signal;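 further: Pro5 are CHO cells carrying HIG-tagged alpha-DG that lacks glycosylation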
The campaign covered roughly 360,000 compounds. About 800 (0.22%) were called active. This is one part of a sample in which actives are shown more often than they occur.
Numbers only, in %.

Here is how some compounds turned out for activation.
compound | activation, %
Cc1[nH]c(C)c(S(=O)(=O)N2CCN(c3cccc(C(F)(F)F)c3)CC2)c1C(=O)N1CCCCC1 | -0.4
COc1ccccc1N1CCN(C(=O)c2cc(-c3ccc(Br)cc3)on2)CC1 | 9.8
O=C(N1CCCCC1)N1CCN(C(=O)N2CCCCC2)CC1 | -0.2
CCOC(=O)N1CCN(S(=O)(=O)c2ccc(C(=O)Nc3ccc(F)cc3F)cc2)CC1 | -0.1
CCc1ccccc1S(=O)(=O)Cc1ccc(C(=O)NCCc2ccccc2)o1 | 13

Give one value of activation per listed compound.
1. COc1ccc(OCc2cc(C(=O)N3CCCC3)no2)c2ccccc12
2. COc1ccc(CCNC(=O)c2ccc(CS(=O)(=O)c3ccc(Br)cc3)o2)cc1OC

[A]
0.3
-0.2

Give one value of activation per listed compound.
1. COc1c(C)cc(C(O)c2ncc(-c3cccc(C(F)(F)F)c3)[nH]2)cc1C (stereo unspecified)
2. COc1ccccc1N1CCN(C(=O)c2cc(=O)c3cc(C)cc(C)c3o2)CC1
3. Nc1cccnc1Sc1ccccc1
4. COCCNC(=O)C(OC(=O)c1cccs1)c1ccc(F)cc1 (stereo unspecified)

[A]
1. 0.3
2. -0.2
3. 0
4. -0.1

###

experiment: compounds raising alpha-dystroglycan glycosylation – uHTS, Pro5-aDG cells, AlphaScreen, primary screen (AID 624168); conditions: alpha-DG glycosylation AlphaScreen (IIH6), at 10 µM, 0% Pro5, 100% B10-LARGE cell signal;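 further: Pro5 are CHO cells carrying HIG-tagged alpha-DG that lacks glycosylation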
Out of some 360,000 compounds screened, about 800 (0.22%) were called active.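 How the source made its calls: active means activation of at least 8% versus controls, or a plate z-score of at least 8; inactive means the rest.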 What follows is part of a selection rich in actives, with near analogues and random picks from the rest.
Assign a class; possible classes are true = active, false = inactive

# example entries with known answers
compound | qualitativeLabel
O=S(=O)(c1ccc(Br)cc1)N1CCC(c2nc3ccccc3[nH]2)CC1 | false
CN(C)N1C(N)=C(C#N)C(c2ccc(Br)cc2)C2=C1CCCC2=O (configuration not stated) | false
O=C(CN1CCCCC1)NC(=O)Nc1ccccc1F | false

[Q] What did the test return for CCOc1ccccc1Nc1nnc(SCC(=O)Nc2cc(C)on2)s1 ?
[A] false

[Q] How about Cc1ccc(OCC(O)CN2CCN(CC(O)COc3ccc(C)cc3Cl)CC2)c(Cl)c1 (configuration not stated) ?
[A] true

[Q] How about COc1ccc(NC(=O)COc2ccc(C(=O)c3ccc(F)cc3)cc2)cc1S(N)(=O)=O ?
[A] false

###

test: compounds raising alpha-dystroglycan glycosylation – uHTS, Pro5-aDG cells, AlphaScreen, primary screen (AID 624168); conditions: alpha-DG glycosylation AlphaScreen (IIH6), at 10 µM, active compounds read high, 0% Pro5, 100% B10-LARGE cell signal;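 further: Pro5 are CHO cells carrying HIG-tagged alpha-DG that lacks glycosylation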
The whole screen tested about 360,000 compounds, of which about 800 (0.22%) were called active. What follows is part of a selection rich in actives, with near analogues and random picks from the rest.
quantityMeasured: activation (%)
Numbers only, in %.

Give one value of activation per listed molecule.
1. Cc1ccccc1NCC(=O)N/N=C\c1ccc([N+](=O)[O-])s1
2. Cc1ccc(S(=O)(=O)N2CCN(CC(=O)N/N=C/c3ccc(Br)s3)CC2)cc1
3. COc1ccc(F)cc1S(=O)(=O)N1CCCCC1
4. CN(CC(=O)Nc1cccc(F)c1)C(=O)C1=COCCO1
5. COCCCC1CCN(C(=O)C2CCC(=O)N(C3CCCCCC3)C2)CC1 (stereo unspecified)
6. O=[N+]([O-])c1ccc(C=Nc2ccc(Cl)cc2Cl)s1

[A]
9.3
-0.1
-0.1
0.1
-0.3
-0.4

###

assay: compounds raising alpha-dystroglycan glycosylation – uHTS, Pro5-aDG cells, AlphaScreen, primary screen (AID 624168); conditions: alpha-DG glycosylation AlphaScreen (IIH6), at 10 µM, active compounds read high, 0% Pro5, 100% B10-LARGE cell signal;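 further: Pro5 are CHO cells carrying HIG-tagged alpha-DG that lacks glycosylation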
About 800 (0.22%) of roughly 360,000 compounds were called active. Only a selection was taken, and actives are over-represented in it overall.
So I've got a bunch of molecules here, and I need their activation values.
Give bare numbers, in %.

Here is how some molecules turned out for activation.
molecule | activation [%]
CC(C)N(C(=O)CSc1nc(COc2ccccc2)nc2ccccc12)C(C)C | 0.2
Cc1[nH][nH]c(=O)c1C(c1ccc(-c2ccc(Cl)cc2)o1)c1c(C)[nH][nH]c1=O | 0

Here's the next entry for you.
[Q] Item CC(=O)Oc1cccc(N2C(=O)CC(Nc3ccc(N4CCOCC4)cc3)C2=O)c1 (stereo not drawn) has what recorded activation?
[A] 0.6

###

experiment: compounds raising alpha-dystroglycan glycosylation – uHTS, Pro5-aDG cells, AlphaScreen, primary screen (AID 624168); details: alpha-DG glycosylation AlphaScreen (IIH6), at 10 µM, active compounds read high, 0% Pro5, 100% B10-LARGE cell signal;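 further: Pro5 are CHO cells carrying HIG-tagged alpha-DG that lacks glycosylation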
Screen size: about 360,000 compounds; about 800 (0.22%) were called active. The sample as a whole holds a higher share of actives than the screen did.
So I've got a bunch of compounds here, and I need their activation values.
Give bare numbers, in %.

compound | activation (%)
COc1ccc(C2c3[nH]c4ccccc4c3C[C@H]3C(=O)N(CC(C)C)CC(=O)N23)c(OC)c1 (stereo partly specified) | 0.3
CC(=O)N/C(=C/c1ccc(OC(F)F)cc1)C(=O)O | -0.4
CC(C)Oc1cc(F)ccc1-c1cc(C(=O)Nc2ccc(F)cc2)[nH]n1 | 0
CCc1noc(C)c1C(=O)N1CCCSC1=Nc1ccccc1OC | -0.1
Cc1cccc2cc(CN(Cc3cccs3)C(=S)NCc3ccco3)c(=O)[nH]c12 | 0
CC(Sc1nnc(-c2ccccc2F)n1C1CC1)C(N)=O (stereo unspecified) | 0.1
CCN(CC(=O)NCc1ccc(Cl)cc1)C(=O)CSc1ccccc1 | 0
COc1ccc(CCCNC(=O)C2Cc3c(-c4cccc(C(N)=O)c4)ccnc3O2)cc1 (stereo unspecified) | 0.1

Give one value of activation per listed compound.
1. c1ccc2cc3c(NCCN4CCOCC4)ccnc3cc2c1
2. COCCCNC(=S)N(CCN(C)C)Cc1cc2cc3c(cc2[nH]c1=O)OCCO3
3. OC(COc1ccc(F)cc1Cl)CN1CCc2ccccc2C1 (stereo unspecified)
4. Cc1cc(C)c2[nH]c(=O)c(CN(Cc3ccccc3)C(=S)NCCCN(C)C)cc2c1
5. Cc1ccc(-c2ccc(CN3C(C(C)C)C(=O)N(Cc4cn(CCC5OCCCO5)nn4)CCS3(=O)=O)cc2)cc1 (stereo unspecified)
6. Cc1c(C(=O)N(C)CCc2cnn(C)c2)oc2c(F)cccc12
7. O=C(COc1cccc(Cl)c1)NCc1ccccc1

[A]
9
-0.2
0.1
8.7
0.4
0.2
0.1

[Q] Item OC(CN1C2=NCCCN2c2ccccc21)c1ccc(Br)cc1 (stereo unspecified) has what recorded activation?
[A] 0.6
